# experimentalTarget: EPHB2 (UniProt P29323)
# Sequence (P29323 whole entry, looked up): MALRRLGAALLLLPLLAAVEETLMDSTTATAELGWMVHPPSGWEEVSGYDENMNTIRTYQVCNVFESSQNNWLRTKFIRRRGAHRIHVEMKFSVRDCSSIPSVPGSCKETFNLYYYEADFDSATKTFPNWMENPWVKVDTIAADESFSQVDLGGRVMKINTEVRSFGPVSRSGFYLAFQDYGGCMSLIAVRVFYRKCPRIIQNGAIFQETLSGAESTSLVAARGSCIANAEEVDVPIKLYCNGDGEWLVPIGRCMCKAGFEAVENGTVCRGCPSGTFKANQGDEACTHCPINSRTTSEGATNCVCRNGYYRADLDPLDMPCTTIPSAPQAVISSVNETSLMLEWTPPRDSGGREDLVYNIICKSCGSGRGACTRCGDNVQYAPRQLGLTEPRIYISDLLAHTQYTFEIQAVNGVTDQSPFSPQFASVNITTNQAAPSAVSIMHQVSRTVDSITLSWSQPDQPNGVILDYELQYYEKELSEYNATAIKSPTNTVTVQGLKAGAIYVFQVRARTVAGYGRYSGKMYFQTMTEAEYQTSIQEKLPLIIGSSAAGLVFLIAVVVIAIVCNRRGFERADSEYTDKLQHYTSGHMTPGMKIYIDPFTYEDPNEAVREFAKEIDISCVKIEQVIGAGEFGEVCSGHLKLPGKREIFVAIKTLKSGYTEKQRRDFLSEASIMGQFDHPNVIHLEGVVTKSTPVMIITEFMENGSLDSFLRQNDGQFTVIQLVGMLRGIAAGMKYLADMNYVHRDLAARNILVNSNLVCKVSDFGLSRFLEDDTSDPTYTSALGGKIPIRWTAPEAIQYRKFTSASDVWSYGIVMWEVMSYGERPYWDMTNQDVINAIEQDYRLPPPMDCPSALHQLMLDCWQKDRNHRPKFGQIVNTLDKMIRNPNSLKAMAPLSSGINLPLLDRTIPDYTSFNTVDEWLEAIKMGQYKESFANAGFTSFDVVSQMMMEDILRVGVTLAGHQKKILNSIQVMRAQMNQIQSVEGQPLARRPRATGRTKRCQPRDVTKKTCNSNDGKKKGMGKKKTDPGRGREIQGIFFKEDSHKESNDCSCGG
# assayOverview: phosphorylation enrichment, bacterial display (enrichment ratio); higher = better substrate or ligand; peptides without Tyr show the background
Please go through the items and note down their phosphorylation enrichment.
Give bare numbers.

Example results:
entrySequence	experimentalTarget	testValue
CPPELYALMSD [ZAP70_Y569]	EPHB2 (UniProt P29323)	1.13
LVSCTYQLARG [FGFR2_Y608]	EPHB2 (UniProt P29323)	0.62
TEGNEYVFRVA	EPHB2 (UniProt P29323)	0.627
GHNDVYISKHV [GRIN2A_Y1423_E1426K]	EPHB2 (UniProt P29323)	0.333
ECKLLYSRKEG [PTPN11_Y263]	EPHB2 (UniProt P29323)	0.513
HIAKGYRRDNP [HARS1_Y156_V155G]	EPHB2 (UniProt P29323)	0.429

Hey, quick one: what's phosphorylation enrichment for each of these?
1. GKPENYRRLDI [VHL_Y175_V170G]
2. LGRKLYSIATP [ABHD12_Y345_A349T]
3. RELGEYALAEF [ALDH1A3_Y492_YF]
4. CEQELYSQLVY [WAS_Y102_W97C]

[0.285, 0.471, 0.697, 5.74]

Look up phosphorylation enrichment for the entries below, preserving their order.
1. QLAPQYTYAQG [FLNA_Y1761]
2. KSVLVYRNGDP [DCDC2_Y22]
3. FARNSYVAGQY [G6PD_Y107]
4. GKTQQYECKWF [BCR_Y751_D752E_YF]
5. TTASRYLKVSD [MYOM2_Y871_N869S]
6. KASIMYPSSNC [CXCL11_Y52_N55S]
7. MGGSLYFSYPD [HIKESHI_Y55_V54L]
8. LLKAGYHGVLR [TTPA_Y100]

[1.19, 0.401, 0.4, 0.603, 0.293, 0.48, 5.75, 0.562]

Please state phosphorylation enrichment for every sequence in the list that follows.
1. FRASFYRKGGC [ALK_Y1283_YF]
2. NQELIYEGQRL [TBK1_Y354_R357Q]
3. PVADPYDQSFE [MAPK14_Y323]
4. ELTTCYRKKCC [CCBE1_Y70]
5. DFSLKYPTDIP [APC_Y1183_A1184P_YF]
6. VQVAFYTVMMN [SPATA17_Y84_M86V_YF]
7. VKKKLYEEIDQ [CYP17A1_Y329]
8. GLRSYYETSKM [MAGED2_Y449]

1: 0.527; 2: 1.11; 3: 0.632; 4: 0.48; 5: 0.599; 6: 0.737; 7: 0.541; 8: 0.584

# map each sequence to its phosphorylation enrichment
1. ILIFHYAKGQP [MPZ_Y82_S78L]
2. ATARPYRPYII [LRP5_Y1528]
3. QRHFVYFFSFL [PTEN_Y176_R173H_YF]
4. KDHPDYKYQAR [SOX10_Y171_P175A]
5. SVVVPNEPPEV [TP53_Y220_Y220N]
6. SYKNKYGMVAQ [APOB_Y276]
7. RSRRSYSCQVM [IGLL1_Y192]
8. FTFNSYFMHWV [IGHV1-46_Y51_T49N_YF]

1: 0.705; 2: 0.362; 3: 0.761; 4: 0.416; 5: 0.665; 6: 0.333; 7: 0.802; 8: 0.761

For the 7 sequences below, give their phosphorylation enrichment values.
1. ENKGVYVPMSG [IVD_Y277_L279P]
2. HNGVSYYINLC [IGF2R_Y2024]
3. LLREWYVQDPY [SIX3_Y225_L226V]
4. VPFARYLAMNK [HARS1_Y138]
5. VSAPEYGPKLK [TBC1D14_Y46_L41V]
6. PGGNIYISPLK [RB1_Y805]
7. PVDVAYRHGFF [PLEC_Y2967_R2969H_YF]

1: 0.383; 2: 0.541; 3: 0.675; 4: 0.43; 5: 0.391; 6: 0.571; 7: 0.268

---

# experimentalTarget: EPHB1 (UniProt P54762)
# Sequence (P54762 whole entry, looked up): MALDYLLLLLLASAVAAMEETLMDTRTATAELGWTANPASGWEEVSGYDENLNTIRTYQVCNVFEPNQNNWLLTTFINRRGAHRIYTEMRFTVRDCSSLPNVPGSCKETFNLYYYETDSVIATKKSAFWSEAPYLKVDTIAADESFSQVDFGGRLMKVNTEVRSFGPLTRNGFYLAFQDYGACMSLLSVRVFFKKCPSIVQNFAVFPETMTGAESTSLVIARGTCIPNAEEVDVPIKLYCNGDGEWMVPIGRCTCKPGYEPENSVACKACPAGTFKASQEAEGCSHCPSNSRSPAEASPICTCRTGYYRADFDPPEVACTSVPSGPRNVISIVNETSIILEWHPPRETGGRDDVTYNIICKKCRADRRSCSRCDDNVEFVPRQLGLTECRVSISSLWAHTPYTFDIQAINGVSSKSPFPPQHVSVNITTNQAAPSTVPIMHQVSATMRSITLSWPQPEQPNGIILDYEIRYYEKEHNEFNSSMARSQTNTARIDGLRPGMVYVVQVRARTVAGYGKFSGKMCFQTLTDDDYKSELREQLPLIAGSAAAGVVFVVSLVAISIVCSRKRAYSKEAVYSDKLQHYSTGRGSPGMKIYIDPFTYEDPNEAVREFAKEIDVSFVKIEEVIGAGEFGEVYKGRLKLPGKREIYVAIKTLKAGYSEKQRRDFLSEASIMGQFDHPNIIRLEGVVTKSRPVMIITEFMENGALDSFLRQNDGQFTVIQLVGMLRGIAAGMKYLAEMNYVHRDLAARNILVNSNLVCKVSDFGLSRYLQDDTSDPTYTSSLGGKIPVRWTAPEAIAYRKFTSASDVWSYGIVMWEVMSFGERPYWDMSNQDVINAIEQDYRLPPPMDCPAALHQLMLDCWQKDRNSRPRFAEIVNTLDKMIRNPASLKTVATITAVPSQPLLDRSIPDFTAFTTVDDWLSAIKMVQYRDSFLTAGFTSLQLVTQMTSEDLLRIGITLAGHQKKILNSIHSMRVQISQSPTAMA
# assayOverview: phosphorylation enrichment, bacterial display (enrichment ratio); higher = better substrate or ligand; peptides without Tyr show the background
readoutLabel: phosphorylation enrichment

entrySequence	experimentalTarget	testValue
CRPPFYHRNCM [HGD_Y334_F329C_YF]	EPHB1 (UniProt P54762)	0.474
RPYSPYIIRGM [LRP5_Y1531_R1529S]	EPHB1 (UniProt P54762)	0.59
KSVLVYRNGDP [DCDC2_Y22]	EPHB1 (UniProt P54762)	0.431
NLAAQYTTVGR [SGSH_Y240_D235N]	EPHB1 (UniProt P54762)	0.304

I have 3 sequences here; please give me phosphorylation enrichment for each one.
1. EEGNPYYSSTR [MCCC2_Y520_A524T]
2. HNGVSYYINLC [IGF2R_Y2024]
3. KQNSLYSFSDH [CCDC82_Y331]

1: 0.595; 2: 0.805; 3: 0.853

---

# experimentalTarget: FGFR3 (UniProt P22607)
# Sequence (P22607 whole entry, looked up): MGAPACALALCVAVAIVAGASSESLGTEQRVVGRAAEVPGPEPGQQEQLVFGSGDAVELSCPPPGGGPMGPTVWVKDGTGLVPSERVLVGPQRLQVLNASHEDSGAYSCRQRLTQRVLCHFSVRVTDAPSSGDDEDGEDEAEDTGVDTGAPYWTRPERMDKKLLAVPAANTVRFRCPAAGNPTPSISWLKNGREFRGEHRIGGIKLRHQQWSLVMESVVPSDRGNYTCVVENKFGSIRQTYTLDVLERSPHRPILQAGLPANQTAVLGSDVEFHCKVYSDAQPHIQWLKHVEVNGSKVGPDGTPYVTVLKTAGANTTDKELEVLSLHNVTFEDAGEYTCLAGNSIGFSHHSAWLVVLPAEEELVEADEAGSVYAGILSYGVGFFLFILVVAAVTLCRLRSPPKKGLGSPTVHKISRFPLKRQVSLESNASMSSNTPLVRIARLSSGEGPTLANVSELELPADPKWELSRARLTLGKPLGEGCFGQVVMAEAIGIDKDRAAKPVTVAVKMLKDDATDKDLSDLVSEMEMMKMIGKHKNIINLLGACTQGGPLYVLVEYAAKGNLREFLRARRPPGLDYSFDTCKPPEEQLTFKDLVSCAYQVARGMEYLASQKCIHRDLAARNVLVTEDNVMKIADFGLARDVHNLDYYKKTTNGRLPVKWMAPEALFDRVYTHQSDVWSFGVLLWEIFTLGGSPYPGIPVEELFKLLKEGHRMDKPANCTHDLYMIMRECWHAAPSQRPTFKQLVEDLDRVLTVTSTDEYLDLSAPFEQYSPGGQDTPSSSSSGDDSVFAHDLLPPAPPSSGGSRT
# assayOverview: phosphorylation enrichment, bacterial display (enrichment ratio); higher = better substrate or ligand; peptides without Tyr show the background
Provide the recorded phosphorylation enrichment for the entries that follow.
Numbers only.

entrySequence	testValue
RHPLDYLRQYP [NARS2_Y138_E137D]	0.694

Items follow; give phosphorylation enrichment for each.
1. NLMPAYHKCIQ [CYP21A2_Y190_Y191H]
2. DQVEQYKKELE [LMNA_Y259]

0.707
0.688

---

For each record, write down the corresponding phosphorylation enrichment.
# Tested on: c-Src
# assayOverview: phosphorylation enrichment, bacterial display (enrichment ratio); higher = better substrate or ligand; peptides without Tyr show the background
One number for each entry.

entrySequence	readoutLabel	testValue
VDEERYDIEGK [TNNI3_Y112_A116G]	phosphorylation enrichment	0.509
SGGSSYGSGGC [KRT1_Y532_G537C]	phosphorylation enrichment	0.502

Kindly consider the entry below.
Entry STDDGCIDLQF [TMEM230_Y29_Y29C] needs its phosphorylation enrichment filled in; supply it.
0.503

---

# experimentalTarget: SHP2-C SH2;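 further: peptide library displayed on the E. coli surface as eCPX fusions, selected cells deep-sequenced, score is each peptide's frequency after selection divided by its frequency in the input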
# assayOverview: SH2 binding enrichment of the phosphorylated peptide, bacterial display (enrichment ratio); higher = better substrate or ligand; peptides without Tyr show the background
Threshold rule: SH2 binding enrichment greater than or equal to 0.8 is criterion met; below that, criterion not met.

Example cases with answers are listed next.
entrySequence	labelClass
LTFDEYRNNSQ [ANXA3_Y216_I219N]	criterion not met
TEQDPYNNIVH [MMUT_Y364_R369H]	criterion not met
GFSRHYEDGFP [CTNND1_Y217_YF]	criterion not met
NTFEKYWPFFQ [GATM_Y103_YF]	criterion met
SVTCMYSPALN [TP53_Y126_T125M]	criterion not met
QLFGPYLRIHA [BSCL2_Y213_A212P_YF]	criterion met

Consider now this further sequence.
hey, is SH2 binding enrichment for this one >= 0.8? ALMGLYHGQVL [HADHA_Y343]
criterion met

---

# Tested on: c-Abl (mouse)
# assayOverview: phosphorylation enrichment, bacterial display (enrichment ratio); higher = better substrate or ligand; peptides without Tyr show the background
What phosphorylation enrichment was measured for each of the following?
Numbers only.

entrySequence	testValue
YVKEPYIQSRF [HIPK4_Y175]	0.457
TVSSDYLHPQF [CCPG1_Y569_F566S_YF]	0.877
KRTFEYEAEKN [DENND2B_Y396_D399E]	0.675
RAMRRYLEWGE [ERBB3_Y680_R683W]	0.4
NTFEKYWPFFQ [GATM_Y103_YF]	0.795

// input: 7 sequences below; output: phosphorylation enrichment for each
1. PGQRVYVVAES [SHH_Y316_R321S]
2. RPYSPYIIRGM [LRP5_Y1531_R1529S]
3. IKKLIYVHLVI [JAGN1_Y42]
4. LWKWRYEELKE [CCDC102B_Y299_K298R]
5. VRFMAYTDETC [F8_Y450_F455C]
6. KGELRYMHSPV [ABCD1_Y281_R285P]
7. LRYDSYSSYCN [SLC20A2_Y433]

1: 0.896; 2: 0.681; 3: 0.852; 4: 1.7; 5: 0.973; 6: 0.527; 7: 0.824

Quick request: phosphorylation enrichment for each listed item, please.
1. HKNNNYEPSLF [BRCA2_Y57_N60S]
2. FVPSFYHAFSG [ACTN4_Y265_S262P_YF]
3. PSGPAYRGAVP [ASAH1_Y43_T42A]
4. VPFARYLAMNK [HARS1_Y138]
5. SYPHEYGSQEG [RBM10_Y48_R46H]
6. LRSRVYEVPVE [SLC26A3_Y756_N753S]
7. NLMPAYHKCIQ [CYP21A2_Y190_Y191H]

[0.659, 0.835, 0.758, 0.328, 0.591, 0.719, 0.71]

Can you give me phosphorylation enrichment for all of these, one by one?
1. TTASRYLKVSD [MYOM2_Y871_N869S]
2. LRYEVYGGENE [STOX1_Y610]
3. SKKVRYVVSKA [BARD1_Y156]

1. 0.54
2. 0.775
3. 0.538
